system: HS 578T breast; assay: NCI tumour cell line growth inhibition, 48 h
Result type: TGI

Consider the reported TGI for these compounds:
Compound	Result
CC(C)(C)OC(=O)NC(CCCCNC(=O)OCc1ccccc1)C(=O)NCCNc1ccc(NCCNC(=O)C(CCCCNC(=O)OCc2ccccc2)NC(=O)OC(C)(C)C)c2c1C(=O)c1ccccc1C2=O (stereo not given)	> 49.7 µM
CC(=O)C(=[N+]=[N-])C(=O)N1CCOC1=O	> 10 µM
CCSCC1CC(O)(c2ccccc2)CC(c2ccc(F)cc2)O1 (stereo not given)	4.36 µM
Cc1coc2c1C[C@@]1(C)[C@H](CCC[C@@H]1C)[C@H]2O	> 100 µM
NC(Cc1ccc(OCc2ccccc2)cn1)C(=O)O (stereo not given)	> 100 µM
CCN(CCCN(C)C)Cc1cc(I)cc(C)c1O	33.1 µM
N#Cc1cc(C#N)c(N)nc1N	> 100 µM
COCC1CCCN1c1ccc(C=N/C(C#N)=C(\N)C#N)cc1 (stereo not given)	> 100 µM

Prompt: Record request: TGI value, item COc1ccc(C(c2cc(OC)c(OC)c(OC)c2)n2ccnc2)cc1O (stereo not given)
Response: > 100 µM

Prompt: What do we get for O=S(=O)(NCCCNc1nccc(-c2c(-c3ccc(O)cc3)nc3sccn23)n1)c1ccc(F)cc1 ?
Response: 6.99 µM

Prompt: Another compound to look at: Cc1ccc(NC(Nc2ccc(C)cc2C)=C(C(Cl)=C(Cl)Cl)[N+](=O)[O-])c(C)c1
Response: > 100 µM

Prompt: Do the same for CN(C)c1ccc(C=Nc2ccc(Oc3ccc(Cl)cc3)c(Cl)c2)cc1 please
Response: 33.2 µM

Prompt: Again, but for Cc1cc(C)n(CC(Cn2nc(C)cc2C)=C(/C(Cl)=C(/Cl)Nc2ccc([N+](=O)[O-])cc2)[N+](=O)[O-])n1
Response: 33.2 µM

Prompt: # iterate: COc1ccc(C2N(c3ccc(F)cc3)C(=O)N3C(c4ccc(OC)cc4)N(c4ccc(F)cc4)C(=O)N23)cc1 (stereo not given)
Response: > 100 µM

Prompt: And for CN(C)c1ccc(C=Nc2ccc(-c3nc4ccccc4[nH]3)cc2)cc1 ?
Response: > 100 µM

Prompt: For CC(ON(C(c1ccccc1)C(C)C)C(C)(C)C)c1ccccc1 (stereo not given) then?
Response: 64.1 µM

Prompt: Another compound: COc1cc(NS(C)(=O)=O)ccc1Nc1cc[nH]c2ccc3nccc3c12
Response: > 100 µM

Prompt: And c1ccc([P+](CCSCCSCC[P+](c2ccccc2)(c2ccccc2)c2ccccc2)(c2ccccc2)c2ccccc2)cc1 ?
Response: > 100 µM

Prompt: Moving on to COc1cc2oc(=O)ccc2cc1C(=O)CC(C)C
Response: > 100 µM

Prompt: Likewise for COc1cc(/C=C\c2cc(OC)c(OC)c(OC)c2)cc(N/C=C\C(=O)c2ccc(OC(F)(F)F)cc2)c1OC ?
Response: > 100 µM

---

system: HCT-116 colon; assay: NCI tumour cell line growth inhibition, 48 h
Reported values of TGI for individual entries

Some molecules with recorded TGI:
Molecule	Target or test system	TGI
CCCCCN(CCCCC)C(=O)[C@@H](CCC(=O)O)NC(=O)c1cc2ccccc2[nH]1	HCT-116 colon	34.2 µM
CC(C)C1=CC(=O)C(C)(C2C(O)CC3(C)C4CC=C5C(CCC(OC6OC(CO)C(O)C(O)C6OC6OC(C)C(O)C(O)C6O)C5(C)C)C4(C)C(=O)CC23C)O1 (stereo not given)	HCT-116 colon	> 100 µM
Cc1cc(S(=O)(=O)Nc2n[nH]c(Nc3ccc(Cl)cc3)n2)c(S)cc1Cl	HCT-116 colon	> 100 µM
CCc1n[nH]c(=O)n1/N=C/c1ccccc1O	HCT-116 colon	> 100 µM
O=C(CSc1nc2ccc([N+](=O)[O-])cc2s1)c1ccc2ccccc2c1	HCT-116 colon	> 100 µM

Prompt: Which TGI value is on record for COc1ccc(N=Nc2c(C)c(C#N)c(=S)n(C3OC(CO)C(O)C(O)C3O)c2-c2ccccc2)cc1 (stereo not given) ?
Response: 94 µM

Prompt: // query: CC(C)=CCC[C@@H](C)/C=C/C=C(\C)C(=O)CC[C@@H]1CC[N@+]2(C)CCCC[C@H]12
Response: > 100 µM

Prompt: Entry to check: C=CCn1c(-c2ccc([N+](=O)[O-])cc2)cs/c1=N\C(P(=O)(O)O)P(=O)(O)O
Response: > 100 µM

Prompt: Please give the result for O=c1ccn(CC2(CO)CCC2)c(=O)[nH]1 too.
Response: > 100 µM

Prompt: Then what about the molecule O=C(CC(Cl)=C(Cl)Cl)Nc1ccccc1 ?
Response: > 100 µM
